# Test system: MDR1
# assay_info: in vitro
# recorded_conditions: dog, MDCK-MDR1, pH 7.4
# Description: Efflux ratio of permeability from basolateral to apical side to apical to basolateral side of MDCK cells expressing MDR1 at pH 7.4
metric: efflux ratio
Provide a numeric answer; units are not to be included.

Which efflux ratio value belongs to Cc1cnc2nc3c(n2c1)-c1cnc(N)c(c1)O[C@H](C)c1cc(F)ccc1C(=O)N(C)C3 ?
20.2

Further cases:
Request the reported efflux ratio associated with Cc1nn(C)cc1-c1cnc(N)c(O[C@H](C)c2cc(F)ccc2C(=O)N(C)C)c1
7.6

* * *

Item-by-item account of logD
# assay_info: physchem
# recorded_conditions: octanol/water, pH 7.4
Just the number, please, no unit attached.

Field: example entries. Status: answers known.
# query: logD of entry COc1nn(C)c2c1-c1cnc(N)c(c1)O[C@H](C)c1cc(F)ccc1C(=O)N(C)C2
2.4

What do you have for C[C@H]1Oc2cc(cnc2N)-c2c(nn(C)c2C#N)CN(C)C(=O)c2ccc(F)cc21 [LORLATINIB] ?
2.3

Next compound up: C[C@H]1Oc2cc(cnc2N)-c2c(nn(C)c2C#N)CCCOc2ccc(F)cc21
3.8

Same again, this time with Cc1nn(C)c2c1-c1cnc(N)c(c1)O[C@H](C)c1cc(F)ccc1C(=O)N(C)C2
2.2

Turning now to a further record.
Request the reported logD associated with Cc1cnc2nc3c(n2c1)-c1cnc(N)c(c1)O[C@H](C)c1cc(F)ccc1C(=O)N(C)C3
1.7

* * *

# assay_info: AUC (infinity) in rat at 1 mg/kg, iv qd
# Format: ADME, organism-based
# Set-up: time infinity, dose 1 mg/kg, route intravenous
# recorded_conditions: plasma
metric: AUC(0-inf) (ng·h/mL)
Give just the numeric value; ng·h/mL need not be written.

Recorded AUC(0-inf) of C[C@H]1Oc2cc(cnc2N)-c2c(nn(C)c2C#N)CN(C)C(=O)c2ccc(F)cc21 , please.
1150

* * *

# assay_info: Fraction unbound in rat brain at 2.4 uM
# Type: ADME, tissue-based
metric: fraction unbound at 2.4 µM
Answer as a number with no unit attached.

Any idea what fraction unbound at 2.4 µM was measured for C[C@H]1Oc2cc(cnc2N)-c2c(nn(C)c2C#N)CN(C)C(=O)c2ccc(F)cc21 ?
0.12

* * *

# assay_info: AUC in rat brain at 10 mg/kg, po
# Assay type: ADME, organism-based
# Parameters: dose 10 mg/kg, route oral
metric: AUC (µM·h)
Numeric only. Scale: µM·h

AUC for C[C@H]1Oc2cc(cnc2N)-c2c(nn(C)c2C#N)CN(C)C(=O)c2ccc(F)cc21 ?
19.6

* * *

# assay_info: in vitro
# recorded_conditions: human, liver microsomes
# Description: Apparent total intrinsic clearance in human liver microsomes
metric: CLint scaled (mL/min/kg)
Report as a plain number; the unit mL/min/kg is understood.

Answered cases to consult:
Endpoint output: CLint scaled of C[C@H]1Oc2cc(cnc2N)-c2cc(S(C)(=O)=O)ccc2CN(C)C(=O)c2ccc(F)cc21 . Value?
9.1

Also need C[C@H]1Oc2cc(cnc2N)-c2c(C3CC3)nn(C)c2CN(C)C(=O)c2ccc(F)cc21 , thanks.
14.6

Check C[C@@H](Oc1cc(-c2cccc(S(C)(=O)=O)c2)cnc1N)c1cc(F)ccc1-n1nccn1 too.
10

Try the compound CNC(=O)c1ccc(F)cc1[C@@H](C)Oc1nc(-c2cccnc2OC)cnc1N
76

What about COc1ccc(F)cc1[C@@H](C)Oc1cc(-c2cnnn2C)cnc1N ?
25

Okay, and Cc1nn(C)c2c1-c1cnc(N)c(c1)O[C@H](C)c1cc(F)ccc1C(=O)N(C)C2 ?
8.6

New cases:
Give its CLint scaled value. Item: Cc1nn(C)cc1-c1cnc(N)c(O[C@H](C)c2cc(F)ccc2-n2nccn2)c1
66

// same read-out, input: C[C@@H](Oc1cc(-c2cnnn2C)cnc1N)c1cc(F)ccc1-n1nccn1
8

Quick one: Cc1nn(C)c2c1-c1cnc(N)c(c1)O[C@@H](C)c1cc(F)ccc1C(=O)N(C)C2
8

* * *

# assay_info: Oral bioavailability in rat at 10 mg/kg qd
# Type: ADME, organism-based
# recorded_conditions: in vivo
metric: bioavailability (%)
Could you give me the number in %? Just the number is fine.

What does the record list as bioavailability for C[C@H]1Oc2cc(cnc2N)-c2c(nn(C)c2C#N)CN(C)C(=O)c2ccc(F)cc21 ?
100

* * *

# assay_info: Tmax in rat at 10 mg/kg, po qd
# Format: ADME, organism-based
# Design: dose 10 mg/kg, route oral
# recorded_conditions: in vivo
metric: Tmax (h)
Report the figure in h without appending any unit label.

Entry C[C@H]1Oc2cc(cnc2N)-c2c(nn(C)c2C#N)CN(C)C(=O)c2ccc(F)cc21 has what Tmax?
1.3

* * *

# assay_system: UniProt Q16288
# Sequence (Q16288 whole entry): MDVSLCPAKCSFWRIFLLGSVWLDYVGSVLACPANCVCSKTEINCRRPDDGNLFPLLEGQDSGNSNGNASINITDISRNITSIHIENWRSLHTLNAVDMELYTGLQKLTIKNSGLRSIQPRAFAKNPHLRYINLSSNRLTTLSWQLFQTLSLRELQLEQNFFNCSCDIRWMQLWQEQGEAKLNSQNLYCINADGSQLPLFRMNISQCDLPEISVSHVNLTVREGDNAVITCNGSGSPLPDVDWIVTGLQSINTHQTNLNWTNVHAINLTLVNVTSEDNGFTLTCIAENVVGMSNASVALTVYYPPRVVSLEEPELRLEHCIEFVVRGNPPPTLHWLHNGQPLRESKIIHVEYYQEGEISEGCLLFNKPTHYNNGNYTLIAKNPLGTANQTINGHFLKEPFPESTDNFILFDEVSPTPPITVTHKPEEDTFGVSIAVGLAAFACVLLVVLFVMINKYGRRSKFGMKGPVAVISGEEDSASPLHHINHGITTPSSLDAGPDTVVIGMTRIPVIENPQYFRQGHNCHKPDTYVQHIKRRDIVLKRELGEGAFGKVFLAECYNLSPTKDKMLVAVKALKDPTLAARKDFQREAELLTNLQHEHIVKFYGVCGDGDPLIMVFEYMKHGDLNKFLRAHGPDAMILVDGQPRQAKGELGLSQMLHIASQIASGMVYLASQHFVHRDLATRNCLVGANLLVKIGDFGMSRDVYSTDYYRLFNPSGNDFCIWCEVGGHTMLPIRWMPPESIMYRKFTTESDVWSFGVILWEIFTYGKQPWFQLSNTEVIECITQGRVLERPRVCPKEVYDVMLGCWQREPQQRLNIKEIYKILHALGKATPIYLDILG
metric: pIC50
// scale note: pIC50 = -log10(conc_M); give the bare number

What measured pIC50 goes with C[C@H]1Oc2cc(cnc2N)-c2c(nn(C)c2C#N)CN(C)C(=O)c2ccc(F)cc21 [LORLATINIB] ?
7.34

* * *

# assay_info: AUC (0 to 24 hrs) in rat at 10 mg/kg, po qd
# Type: ADME, organism-based
# Design: time < 24 hr, dose 10 mg/kg, route oral
# recorded_conditions: plasma
metric: AUC at 24 h (ng·h/mL)
Reply with just the number (in ng·h/mL).

Quick one: AUC at 24 h for C[C@H]1Oc2cc(cnc2N)-c2c(nn(C)c2C#N)CN(C)C(=O)c2ccc(F)cc21 ?
14900

* * *

# assay_info: Volume of distribution at steady state in rat at 1 mg/kg, iv qd
# Assay type: ADME, organism-based
# Set-up: dose 1 mg/kg, route intravenous
# recorded_conditions: in vivo, read-out: Vdss
metric: Vd (L/kg)
Give a bare numeral; the unit L/kg is implied.

Recorded Vd of C[C@H]1Oc2cc(cnc2N)-c2c(nn(C)c2C#N)CN(C)C(=O)c2ccc(F)cc21 [LORLATINIB] , please.
2.7

* * *

# assay_system: ALK tyrosine kinase receptor (Homo sapiens)
# Sequence (Q9UM73 whole entry): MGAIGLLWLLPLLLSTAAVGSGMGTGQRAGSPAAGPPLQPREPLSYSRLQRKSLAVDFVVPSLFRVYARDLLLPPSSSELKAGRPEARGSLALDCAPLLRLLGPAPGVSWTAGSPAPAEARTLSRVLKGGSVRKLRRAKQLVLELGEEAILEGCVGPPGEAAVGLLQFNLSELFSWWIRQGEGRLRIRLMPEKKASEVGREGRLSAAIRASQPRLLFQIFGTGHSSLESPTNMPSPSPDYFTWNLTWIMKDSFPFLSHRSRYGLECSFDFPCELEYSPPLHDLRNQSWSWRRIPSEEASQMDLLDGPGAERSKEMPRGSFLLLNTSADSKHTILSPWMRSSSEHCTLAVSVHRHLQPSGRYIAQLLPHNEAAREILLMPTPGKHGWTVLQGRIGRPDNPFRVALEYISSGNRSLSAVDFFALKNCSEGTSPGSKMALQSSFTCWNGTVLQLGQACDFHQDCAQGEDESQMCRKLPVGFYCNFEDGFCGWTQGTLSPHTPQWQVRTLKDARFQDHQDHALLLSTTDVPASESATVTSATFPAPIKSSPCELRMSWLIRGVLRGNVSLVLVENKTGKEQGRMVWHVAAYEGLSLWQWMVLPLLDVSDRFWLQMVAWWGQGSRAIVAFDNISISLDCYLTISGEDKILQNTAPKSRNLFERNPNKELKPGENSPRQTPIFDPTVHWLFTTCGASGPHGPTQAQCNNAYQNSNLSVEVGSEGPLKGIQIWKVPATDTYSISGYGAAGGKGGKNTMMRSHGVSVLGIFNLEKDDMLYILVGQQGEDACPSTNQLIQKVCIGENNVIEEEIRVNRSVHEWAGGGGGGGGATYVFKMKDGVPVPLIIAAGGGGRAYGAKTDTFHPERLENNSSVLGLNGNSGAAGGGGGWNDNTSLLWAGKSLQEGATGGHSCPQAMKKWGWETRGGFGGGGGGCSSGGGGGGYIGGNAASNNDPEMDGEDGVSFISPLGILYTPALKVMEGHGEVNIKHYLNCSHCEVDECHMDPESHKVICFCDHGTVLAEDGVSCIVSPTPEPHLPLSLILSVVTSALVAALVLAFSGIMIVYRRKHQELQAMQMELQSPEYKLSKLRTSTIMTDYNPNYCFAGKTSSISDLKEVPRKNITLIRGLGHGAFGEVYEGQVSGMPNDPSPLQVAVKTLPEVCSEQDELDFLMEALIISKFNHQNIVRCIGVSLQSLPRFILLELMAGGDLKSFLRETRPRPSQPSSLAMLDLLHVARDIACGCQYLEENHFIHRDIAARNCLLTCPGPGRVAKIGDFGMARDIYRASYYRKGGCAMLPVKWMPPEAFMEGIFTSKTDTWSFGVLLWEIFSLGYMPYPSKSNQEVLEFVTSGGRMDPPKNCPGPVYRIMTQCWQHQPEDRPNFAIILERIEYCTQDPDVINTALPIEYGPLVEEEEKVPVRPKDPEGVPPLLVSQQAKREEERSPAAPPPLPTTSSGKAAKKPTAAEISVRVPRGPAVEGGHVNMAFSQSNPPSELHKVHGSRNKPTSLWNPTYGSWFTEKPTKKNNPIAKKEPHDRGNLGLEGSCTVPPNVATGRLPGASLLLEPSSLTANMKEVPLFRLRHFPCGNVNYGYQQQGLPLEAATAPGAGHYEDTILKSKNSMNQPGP
metric: pKi
Lab note: report pKi as minus log10 of the concentration in molar units, number only.

What does the record list as pKi for Cc1nn(C)cc1-c1cnc(N)c(O[C@H](C)c2cc(F)ccc2C(=O)N(C)C)c1 ?
7.66

* * *

# assay_info: in vitro
# recorded_conditions: human, liver microsomes
Decision: CLint scaled compared against 20 mL/min/kg; not below it gives Yes, below it gives No.

# check: CLint scaled of C[C@H]1Oc2cc(cnc2N)-c2c(nn(C)c2C#N)CN(C)C(=O)c2ccc(F)cc21 is greater than or equal to 20 mL/min/kg
No

Please do the same for Cc1cnc2nc3c(n2c1)-c1cnc(N)c(c1)O[C@H](C)c1cc(F)ccc1C(=O)N(C)C3 as well.
No

Cool, now C[C@H]1Oc2nc(cnc2N)-c2cc(S(C)(=O)=O)ccc2CN(C)C(=O)c2ccc(F)cc21
No

Continuing:
Form field: CLint scaled at least 20 mL/min/kg? Entry: Cc1nn(C)c2c1-c1cnc(N)c(n1)O[C@H](C)c1cc(F)ccc1C(=O)N(C)C2
No

For Cc1nn(C)cc1-c1cnc(N)c(O[C@H](C)c2cc(F)ccc2C(=O)N(C)C)c1 then?
Yes

Next entry: COc1nn(C)c2c1-c1cnc(N)c(n1)O[C@H](C)c1cc(F)ccc1C(=O)N(C)C2
Yes

Then what about the compound Cc1nn(C)c2c1-c1cnc(N)c(c1)OCc1cc(F)ccc1C(=O)N(C)C2 ?
No

Another compound to look at: CNC(=O)c1ccc(F)cc1[C@@H](C)Oc1cc(-c2cn(C)nc2C)cnc1N
Yes

Continue with Cc1nn(C)c2c1-c1cnc(N)c(n1)O[C@@H](C)c1cc(F)ccc1C(=O)N(C)C2
No

Param item: Cc1nc([C@](C)(O)CO)sc1-c1cnc(N)c(O[C@H](C)c2cc(F)ccc2-n2nccn2)c1
No

Moving on to the next compound: C[C@H]1Oc2nc(cnc2N)-c2c(nc3ccc(C#N)cn23)CN(C)C(=O)c2ccc(F)cc21
No

Similarly, COc1nn(C)c2c1-c1cnc(N)c(c1)O[C@H](C)c1cc(F)ccc1C(=O)N(C)C2 ?
No

Now give it for COc1ncccc1-c1cnc(N)c(O[C@H](C)c2cc(F)ccc2-n2nccn2)n1 too.
Yes
